Test: Solubility in buffers or solutions, LC-MS/MS
Assay type: physicochemical
Recorded Conditions: USP pH 6.8 buffer, aqueous buffer, thermodynamic from solid, USP pH 6.8, 37° C.
Measurement Kind: solubility at 24 h (µg/mL)
// units = µg/mL; emit number, no label

For CCOC(=O)CCNC(=O)c1ccc(N[C@H](c2ccc(-c3nnc(-c4ccccc4)o3)cc2)C(C)C)cc1 [ALP001E] , what is its reported solubility at 24 h?
0.44

---

Test: Oral bioavailability / pharmacokinetics in Beagle dogs
Type: in vivo
Recorded Conditions: dog, plasma, pH 7.4, IV bolus, 40 to 50 mg, vehicle 0.1M NaHCO3 pH7.4, read-out: AUC (area under the curve) of IV bolus
Measurement Kind: AUC

For CC(C)[C@H](Nc1ccc(C(=O)NCCC(=O)O)cc1)c1ccc(-c2nnc(-c3ccccc3)o2)cc1 , what is its reported AUC?
2180 ng·h/mL
